Data origin: patent US20160100574A1

Test system: Aspergillus brasiliensis
quantity kind: MIC (µg/mL)
Give the number; µg/mL is assumed, so skip it.

In: I am curious: what MIC value has been reported for CCCCCCOCC(O)CO (stereo not shown) ?
Out: 4000

In: I am curious: what MIC value has been reported for CCCCCCCOCC(O)CO (stereo not shown) ?
Out: 1000

In: I am curious: what MIC value has been reported for OCC(O)COCc1ccccc1 (stereo not shown) ?
Out: 20000

In: I am curious: what MIC value has been reported for CCCCCCCCOCC(O)CO (stereo not shown) ?
Out: 500

----------
Answer each item with its documented MIC.
Please format your answer as a value with the unit trailing.

In: Lab request: please report MIC under test system Escherichia coli for OCC(O)COCc1ccccc1 (stereo not shown)
Out: 10000 µg/mL

In: Lab request: please report MIC under test system Escherichia coli for CCCCCCCOCC(O)CO (stereo not shown)
Out: 2000 µg/mL

In: Lab request: please report MIC under test system Escherichia coli for CCCCCCCCOCC(O)CO (stereo not shown)
Out: 1000 µg/mL

In: Lab request: please report MIC under test system Escherichia coli for CCCCCCOCC(O)CO (stereo not shown)
Out: 4000 µg/mL
